koff for assorted binders
subject_of_test: T1, biotinylated GITR (human, UniProt Q9Y5U5 26-161, limits assumed, biotinylated (sites not given))
T1 construct: also called GITR-bio; Biotin-GITR
T1 sequence: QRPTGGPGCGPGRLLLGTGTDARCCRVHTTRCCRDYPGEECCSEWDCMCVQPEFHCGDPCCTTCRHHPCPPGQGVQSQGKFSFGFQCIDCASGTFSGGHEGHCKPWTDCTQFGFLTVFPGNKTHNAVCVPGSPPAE
assay_name: BLI (Octet), biotin-GITR on streptavidin tips, antibody supernatant
Return type: number; implicit unit s⁻¹.

[Q] GET /values?readout=koff&item= germline variant antibody 39 (H1916D09 / K1916D09) (antibody, V domains shown, IGHG1/IGKC expression vectors; measured from CHO culture supernatant; also called Antibody ID 39) VH: QVQLVQSGAEVKKPGASVKVSCKGSGYTFTGYAMHWVRQAPGQGLEWMGLIRTYSGGVSYNQKFRERATMTVDTSISTAYMELSRLRSDDTAVYYCAKSGTVRGFAYWGQGTLITVSS VL: DIVMTQSPDSLAVSLGERATINCKSSQSLLNSSNQKNYLTWYQQKPGQPPKLLIYWASTRESGVPDRFTGSGSGTDFTLTISSVQAEDVAVYHCQNEYSFPYTFGQGTKLEIK
[A] 0.000997

[Q] GET /values?readout=koff&item= germline variant antibody 70 (H1917B04 / K1917B04) (antibody, V domains shown, IGHG1/IGKC expression vectors; measured from CHO culture supernatant; also called Antibody ID 70) VH: QVQLVQSGTEVKKPGASVKVSCKASGYTFTGYAMYWVRQAPGQGMEWIGVIRTYSGDVTYNQKFKDRATMTVDTSISTAYMELSRLRSDDTAVYYCAKSGTVRGFAYWGQGTLVTVSS VL: DIVMTQSPDSLAVSLGERATINCKSSQSLLNSGNQKNYLSWYQQKPGQPPKLLIYWASTRESGVPDRFSGSGSGTDFTLTISSLQAEDVAVYHCQNDYSFPYTFGQGTKLEIK
[A] 0.000879

[Q] GET /values?readout=koff&item= germline variant antibody 96 (H1917G06 / K1917G06) (antibody, V domains shown, IGHG1/IGKC expression vectors; measured from CHO culture supernatant; also called Antibody ID 96) VH: QVQLVQSGAEVKKPGASVKVSCKGSGYTFTEYAMYWVRQAPGQGMEWMGVIRTYSGGLTYNQKFRDRVTMTVDTSISTAYMELSRLRSDDTAVYYCAKSGTVRGFAYWGQGTLVTVSS VL: DIVMTQSPDSLAVSLGERATINCKSSQSLLNSSNQKNYLSWYHQKPGQPPKLLIYWASTRESGVPDRFSGSGSGTDFTLTISSLQAEDVAVYHCQNDYSYPYTFGQGTKLEIK
[A] 0.000373

[Q] GET /values?readout=koff&item= germline variant antibody 37 (H1916D07 / K1916D07) (antibody, V domains shown, IGHG1/IGKC expression vectors; measured from CHO culture supernatant; also called Antibody ID 37) VH: QVQLVQSGTEVKKPGASVKVSCKGSGYTFTEYAMYWVRQAPGQGMEWIGLIRTFSGEVTYNQKFKDRVTMTVDTSISTAYMELSRLRSDDTAVYYCAKSGTVRGFAYWGQGTLVTVSS VL: DIVMTQSPDSLAVSLGERATINCKSSQSLLNSGNQKNYLTWYQQKPGQPPKLLIYWASTRESGVPDRFTGSGSGTDFTLTISSLQAEDVAVYHCQNEYSYPYTFGQGTKLEIK
[A] 0.000242

[Q] GET /values?readout=koff&item= germline variant antibody 43 (H1916E03 / K1916E03) (antibody, V domains shown, IGHG1/IGKC expression vectors; measured from CHO culture supernatant; also called Antibody ID 43) VH: QVQLVQSGAEVKKPGASVKVSCKGSGYTFTEYAMYWVRQAPGQGMEWIGLIRTFSGDVSYNQKFKGRATMTVDKSISTAYMELSRLRSDDTAVYYCAKSGTVRGFAYWGQGTLVTVSS VL: DIVMTQSPDSLAVSLGERATINCKSSQSLLNSGNQKNYLTWYQQKPGQPPKMLIYWASTRESGVPDRFTGSGSGTDFTLTISSVQAEDVAVYHCQNDYSYPYTFGQGTKLEIK
[A] 0.000477
